Values compiled from patent US5190741A.

TEST: Tissue distribution in Swiss nu/nu SSCUP mice bearing Beu
Type: in vivo, human
REPORTED CONDITIONS: mouse, kidney, iv, 3 umol/animal; 12 h; read-out: kidney % ID/g
MEASUREMENT NAME: tissue uptake at 12 h (%ID/g)

>  <COMPOUND>
CCN(CC)CCNC(=O)c1ccc(I)cc1 [Derivative A, N-(2-diethylaminoethyl) 4-iodo benzamide]

>  <UNIT TEXT>
%ID/g

>  <TEST VALUE>
0.1

$$$$

----------
Measured tissue uptake at 1 h of individual entries
TEST: Tissue distribution in Swiss nu/nu SSCUP mice bearing Dau
Assay type: in vivo, human
REPORTED CONDITIONS: mouse, tumor, iv, 3 umol/animal, 1 h; read-out: tumor % ID/g

>  <COMPOUND>
CCN(CC)CCNC(=O)c1ccc(I)cc1 [Derivative A, N-(2-diethylaminoethyl) 4-iodo benzamide]

>  <tissue uptake at 1 h (%ID/g)>
1.51

$$$$
>  <COMPOUND>
CCNCCNC(=O)c1ccc(I)cc1 [Derivative B, N-(2-ethylaminoethyl) 4-iodo benzamide]

>  <tissue uptake at 1 h (%ID/g)>
1.19

$$$$

----------
TEST: Tissue distribution in Swiss nu/nu SSCUP mice bearing Dau
Type: in vivo, human
REPORTED CONDITIONS: mouse, muscle, iv, 3 umol/animal; 8 h; read-out: muscle % ID/g
Measured tissue uptake at 8 h of individual entries
MEASUREMENT NAME: tissue uptake at 8 h (%ID/g)

>  <MOLECULE>
CCN(CC)CCNC(=O)c1ccc(I)cc1 [Derivative A, N-(2-diethylaminoethyl) 4-iodo benzamide]

>  <MEASUREMENT NAME>
tissue uptake at 8 h

>  <TEST VALUE>
0.07

$$$$
>  <MOLECULE>
CCNCCNC(=O)c1ccc(I)cc1 [Derivative B, N-(2-ethylaminoethyl) 4-iodo benzamide]

>  <MEASUREMENT NAME>
tissue uptake at 8 h

>  <TEST VALUE>
0.07

$$$$

----------
TEST: Tissue distribution in C57 BL6 mice bearing B16
Assay type: in vivo, mouse
REPORTED CONDITIONS: mouse, intestine, iv, 3 umol/animal; 6 h; read-out: intestine % ID/g

>  <COMPOUND>
CCN(CC)CCNC(=O)c1ccc(I)cc1 [Derivative A, N-(2-diethylaminoethyl) 4-iodo benzamide]

>  <tissue uptake at 6 h [%ID/g]>
0.75

$$$$

----------
TEST: Tissue distribution in C57 BL6 mice bearing B16
Format: in vivo, mouse
REPORTED CONDITIONS: mouse, submaxillary glands, iv, 3 umol/animal; 1 h; read-out: submaxillary glands % ID/g

>  <COMPOUND>
CCN(CC)CCNC(=O)c1ccc(I)cc1 [Derivative A, N-(2-diethylaminoethyl) 4-iodo benzamide]

>  <tissue uptake at 1 h / %ID/g>
6.06

$$$$

----------
Measured tissue uptake at 4 h of individual entries
TEST: Tissue distribution in Swiss nu/nu SSCUP mice bearing Dau
Type: in vivo, human
REPORTED CONDITIONS: mouse, plasma, iv, 3 umol/animal, 4 h; read-out: plasma % ID/g
MEASUREMENT NAME: tissue uptake at 4 h

>  <COMPOUND>
CCNCCNC(=O)c1ccc(I)cc1 [Derivative B, N-(2-ethylaminoethyl) 4-iodo benzamide]

>  <TEST VALUE>
0.28 %ID/g

$$$$
>  <COMPOUND>
CCN(CC)CCNC(=O)c1ccc(I)cc1 [Derivative A, N-(2-diethylaminoethyl) 4-iodo benzamide]

>  <TEST VALUE>
0.24 %ID/g

$$$$
